The following compounds have recorded pIC50 on UniProt P0DTD1.
Field pIC50 (float): negative decimal logarithm of the concentration in molar.

Answered cases to consult:
• O=C(Nc1cncc2ccccc12)C1CCN(Cc2ccn[nH]2)c2ccc(Cl)cc21 (stereo not drawn) = 6.10
• OC(Cc1cccc(Cl)c1)Cn1cncn1 (stereo not drawn) = 4.19
• Cc1ccncc1N1CCC(c2cccc(Cl)c2)S1(=O)=O (stereo not drawn) = 4.07
• O=C(Cc1cc(Cl)cc(NCCc2ccccc2C(F)(F)F)c1)Nc1cncc2ccccc12 = 5.53
• O=C(Cc1cc(Cl)cc(N2CCN(C(=O)[C@@H]3COc4ccccc4O3)CC2)c1)Nc1cncc2ccccc12 (stereo in doubt) = 5.56
• CC1(C(=O)Nc2cncc3ccccc23)CN(CC2CC2)S(=O)(=O)c2ccc(Cl)cc21 (stereo not drawn) = 6.20
• COc1ccc(S(=O)(=O)N2CCN(C(=O)CCl)CC2)cc1 = 4.56
• O=C(Cc1cc(Cl)cc(NCc2ccc(Cl)c(C(F)(F)F)c2)c1)Nc1cncc2ccccc12 = 5.53

Problem: Report its pIC50 with UniProt P0DTD1 as the test system: CN1CC(C)(C(=O)Nc2cncc3cc(S(C)(=O)=O)ccc23)c2cc(Cl)ccc2S1(=O)=O (stereo not drawn)
Result: 6.28

Problem: Look up and report pIC50, with UniProt P0DTD1 as system, for CC(C)(C)c1ccc(N(C(=O)c2coc(CS(C)(=O)=O)n2)C(C(=O)NCCc2cccc(F)c2)c2cccnc2)cc1 (stereo not drawn)
Result: 4.41

Problem: Provide measured pIC50 on UniProt P0DTD1 for CC(C)(C)c1ccc(N(C(=O)c2ccco2)C(C(=O)NCCc2cccc(F)c2)c2snc3ccccc23)cc1 (stereo not drawn) please.
Result: 5.27

Problem: # lookup: UniProt P0DTD1 pIC50, key = Cc1noc(C)c1S(=O)(=O)N1CCN(C(=O)CCl)CC1
Result: 5.39

Problem: Print UniProt P0DTD1 pIC50 for O=C(O)[C@@H](c1ccccc1)N1Cc2ccccc2C1=O (stereo in doubt) .
Result: 5.75

Problem: Give measured pIC50 for O=C(NCc1ccccn1)[C@H]1CN(C(=O)CCl)CCN1S(=O)(=O)c1ccsc1 (stereo in doubt) (UniProt P0DTD1).
Result: 6.51

Problem: Jot down pIC50 (UniProt P0DTD1) of Cc1ccncc1N1CCC(c2cccc(Cl)c2)C1=O (stereo not drawn) .
Result: 4.35

Problem: # return pIC50 of O=C(Nc1cncc2ccncc12)C1CCOc2cc(F)c(Cl)cc21 (stereo not drawn) (system: UniProt P0DTD1)
Result: 5.96

Problem: Recall the reported pIC50 of O=C(CC1(C(=O)Nc2cncc3ccccc23)CCOc2ccc(Cl)cc21)N1C[C@@H]2C[C@H]1CN2CC(F)F (stereo in doubt) when tested on UniProt P0DTD1.
Result: 5.42

Problem: State measured pIC50 of the compound Cc1ccc(S(=O)(=O)CNC(=O)C(c2cccnc2)N(C(=O)c2cocn2)c2ccc(C(C)(C)C)cc2)cc1 (stereo not drawn) with UniProt P0DTD1.
Result: 4.20

Problem: Look up and report measured pIC50 (UniProt P0DTD1) for the following compound: CNC(=O)CN1C[C@H](C(=O)Nc2cncc3cc(Cl)ccc23)c2cc(Cl)ccc2C1=O (stereo in doubt)
Result: 6.83

Problem: Look up UniProt P0DTD1 data: pIC50 of O=C(Cc1cc(Cl)cc(Nc2ccc(OC(F)(F)F)cc2Cl)c1)Nc1cncc2ccccc12 , then report it.
Result: 5.72

Problem: Write down measured pIC50 (UniProt P0DTD1) for this compound. CC(C)(C)c1ccc(N(C(=O)c2cocn2)C(C(=O)NCCc2cccc(F)c2)c2ccnnc2)cc1 (stereo not drawn)
Result: 5.69
